assay: Solubility in Water at pH 4; assay type: physicochemical
measured_metric: solubility (µg/mL)

[[record]]
test_smiles = "COc1cccc2nc(CCCN(C)CC[C@]3(OC(=O)C(C)C)C[C@H]4CCC[C@@H]3c3ccccc34)[nH]c12"
endpoint_result = 734


----------
assay: Solubility in pH 7.0 buffer; format: physicochemical
measured_metric: solubility

[[record]]
test_smiles = "COc1cccc2nc(CCCN(C)CC[C@]3(OC(=O)C(C)C)C[C@H]4CCC[C@@H]3c3ccccc34)[nH]c12"
endpoint_result = "119 µg/mL"


----------
experiment: Distribution coefficient, log D of the compound at pH 7.4; type: physicochemical; conditions: octanol/water
measured_metric: logD

[[record]]
test_smiles = "COc1cccc2nc(CCCN(C)CC[C@]3(OC(=O)C(C)C)C[C@H]4CCC[C@@H]3c3ccccc34)[nH]c12"
endpoint_result = 2.7


----------
experiment: Half life in Wistar rat at 10 mg/kg, po or 1 mg/kg, iv; format: ADME, organism-based; conditions: in vivo
measured_metric: half-life (h)

[[record]]
test_smiles = "COc1cccc2nc(CCCN(C)CC[C@]3(OC(=O)C(C)C)C[C@H]4CCC[C@@H]3c3ccccc34)[nH]c12"
endpoint_result = 2.2


----------
biological target: Cytochrome P450 3A4 (Homo sapiens); assay: Inhibition of CYP3A4 in human liver microsomes assessed as reduction in testosterone 6beta-hydroxylation by LC-MS/MS method; assay type: ADME
Sequence (P08684 whole entry): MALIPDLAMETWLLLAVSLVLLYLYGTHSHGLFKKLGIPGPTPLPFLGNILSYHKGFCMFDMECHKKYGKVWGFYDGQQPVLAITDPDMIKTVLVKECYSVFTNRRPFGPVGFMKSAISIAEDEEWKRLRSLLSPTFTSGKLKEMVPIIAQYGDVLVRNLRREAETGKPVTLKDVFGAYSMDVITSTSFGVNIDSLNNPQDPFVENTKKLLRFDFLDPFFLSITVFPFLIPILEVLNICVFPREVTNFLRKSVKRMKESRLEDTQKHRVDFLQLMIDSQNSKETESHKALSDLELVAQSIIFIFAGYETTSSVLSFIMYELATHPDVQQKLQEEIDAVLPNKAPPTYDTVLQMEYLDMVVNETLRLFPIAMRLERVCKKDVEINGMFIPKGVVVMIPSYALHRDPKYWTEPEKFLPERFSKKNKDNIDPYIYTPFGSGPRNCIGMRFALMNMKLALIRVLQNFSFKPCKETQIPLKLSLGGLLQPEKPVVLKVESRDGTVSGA
measured_metric: IC50 (µM)

[[record]]
test_smiles = "COc1cccc2nc(CCCN(C)CC[C@]3(OC(=O)C(C)C)C[C@H]4CCC[C@@H]3c3ccccc34)[nH]c12"
tested_on = "Cytochrome P450 3A4 (Homo sapiens)"
endpoint_result = 5.5


----------
target: Voltage-dependent T-type calcium channel subunit alpha-1H (Homo sapiens, UniProt O95180); test: Inhibition of recombinant Cav3.2 channel (unknown origin) expressed in HEK293 cells assessed as effect on calcium flux incubated for 3 mins by FLIPR assay; format: cell-based
Sequence (O95180 whole entry): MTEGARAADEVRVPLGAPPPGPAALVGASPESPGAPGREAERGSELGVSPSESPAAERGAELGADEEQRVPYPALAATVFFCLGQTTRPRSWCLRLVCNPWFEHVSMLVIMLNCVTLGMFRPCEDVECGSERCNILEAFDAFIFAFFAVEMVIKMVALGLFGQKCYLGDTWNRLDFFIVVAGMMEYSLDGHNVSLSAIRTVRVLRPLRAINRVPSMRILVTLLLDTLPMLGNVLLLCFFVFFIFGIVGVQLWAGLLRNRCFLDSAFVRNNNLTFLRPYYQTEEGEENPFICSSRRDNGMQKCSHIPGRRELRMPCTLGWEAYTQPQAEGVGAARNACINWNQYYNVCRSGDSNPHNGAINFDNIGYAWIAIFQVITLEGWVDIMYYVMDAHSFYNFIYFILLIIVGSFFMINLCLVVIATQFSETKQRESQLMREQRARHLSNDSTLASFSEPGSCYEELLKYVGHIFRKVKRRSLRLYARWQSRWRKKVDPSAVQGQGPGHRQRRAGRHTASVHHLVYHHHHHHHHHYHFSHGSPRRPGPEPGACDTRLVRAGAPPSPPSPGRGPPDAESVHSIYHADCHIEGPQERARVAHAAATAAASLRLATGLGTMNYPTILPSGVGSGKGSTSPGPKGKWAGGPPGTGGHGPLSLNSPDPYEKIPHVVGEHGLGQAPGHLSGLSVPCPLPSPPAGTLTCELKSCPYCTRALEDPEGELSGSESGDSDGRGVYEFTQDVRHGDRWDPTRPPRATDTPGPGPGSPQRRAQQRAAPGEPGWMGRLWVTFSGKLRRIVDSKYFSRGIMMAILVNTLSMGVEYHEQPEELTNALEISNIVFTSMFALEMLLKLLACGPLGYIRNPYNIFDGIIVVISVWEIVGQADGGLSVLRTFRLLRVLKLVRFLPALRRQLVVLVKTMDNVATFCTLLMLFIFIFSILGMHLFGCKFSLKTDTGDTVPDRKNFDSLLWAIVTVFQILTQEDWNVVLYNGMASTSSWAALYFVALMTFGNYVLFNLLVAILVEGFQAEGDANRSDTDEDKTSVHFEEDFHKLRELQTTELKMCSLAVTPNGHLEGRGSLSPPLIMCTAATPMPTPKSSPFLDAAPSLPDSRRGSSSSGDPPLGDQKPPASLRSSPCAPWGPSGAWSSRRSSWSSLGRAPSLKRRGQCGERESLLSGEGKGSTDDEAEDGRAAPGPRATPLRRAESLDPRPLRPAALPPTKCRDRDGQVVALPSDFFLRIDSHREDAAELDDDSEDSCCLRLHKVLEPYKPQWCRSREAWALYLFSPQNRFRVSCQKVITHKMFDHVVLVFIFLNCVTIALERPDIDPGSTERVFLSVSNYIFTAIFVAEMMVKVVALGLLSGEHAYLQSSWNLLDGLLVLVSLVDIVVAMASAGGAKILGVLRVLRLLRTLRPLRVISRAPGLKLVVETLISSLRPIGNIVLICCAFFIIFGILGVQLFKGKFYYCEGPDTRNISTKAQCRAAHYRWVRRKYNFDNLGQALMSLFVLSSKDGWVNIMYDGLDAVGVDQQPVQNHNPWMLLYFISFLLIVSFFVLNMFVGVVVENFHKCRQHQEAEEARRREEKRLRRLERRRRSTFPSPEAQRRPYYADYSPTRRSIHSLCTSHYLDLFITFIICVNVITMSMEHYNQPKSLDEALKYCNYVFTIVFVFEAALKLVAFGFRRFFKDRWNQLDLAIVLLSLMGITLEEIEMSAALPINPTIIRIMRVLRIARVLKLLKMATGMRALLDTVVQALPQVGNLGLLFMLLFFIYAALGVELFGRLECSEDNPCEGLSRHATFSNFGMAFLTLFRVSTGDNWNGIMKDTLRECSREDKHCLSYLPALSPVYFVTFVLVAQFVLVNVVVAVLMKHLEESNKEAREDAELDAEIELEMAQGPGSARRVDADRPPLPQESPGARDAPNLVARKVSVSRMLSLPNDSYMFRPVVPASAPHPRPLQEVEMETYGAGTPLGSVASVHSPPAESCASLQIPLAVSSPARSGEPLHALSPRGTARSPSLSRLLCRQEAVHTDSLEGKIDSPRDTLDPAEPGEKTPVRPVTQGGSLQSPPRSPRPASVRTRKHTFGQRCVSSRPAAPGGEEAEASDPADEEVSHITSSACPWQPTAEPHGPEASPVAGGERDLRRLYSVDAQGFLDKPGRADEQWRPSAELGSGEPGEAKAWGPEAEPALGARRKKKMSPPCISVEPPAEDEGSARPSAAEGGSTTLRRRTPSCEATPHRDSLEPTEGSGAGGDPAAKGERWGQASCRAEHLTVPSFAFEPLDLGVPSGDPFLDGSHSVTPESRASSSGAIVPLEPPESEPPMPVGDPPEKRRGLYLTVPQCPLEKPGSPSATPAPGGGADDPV
pIC50: −log10 of the molar value.
Each entry below lists one item and its recorded pIC50 value.
measured_metric: pIC50

[[record]]
compound = "CC(C)C(=O)O[C@]1(CCN(C)CCCc2nc3ccccc3[nH]2)C[C@@H](O)c2cc(F)ccc2[C@@H]1C(C)C"
measured_metric = "pIC50"
endpoint_result = 6.97

[[record]]
compound = "CN(CCCc1nc2ccccc2[nH]1)CC[C@@]1(OC(=O)C2CC2)C[C@@H]2CC[C@H]1c1ccccc12 (racemic)"
measured_metric = "pIC50"
endpoint_result = 6.68

[[record]]
compound = "CC(C)C(=O)O[C@]1(CCN(C)CCCc2nc3ccccc3[nH]2)C[C@@H]2CCC[C@H]1c1ccccc12"
measured_metric = "pIC50"
endpoint_result = 6.65

[[record]]
compound = "CC(C)C(=O)O[C@@]1(CCN(C)CCCc2nc3ccccc3[nH]2)C[C@H]2CC[C@@H]1c1ccccc12"
measured_metric = "pIC50"
endpoint_result = 6.40

[[record]]
compound = "CC(C)C(=O)O[C@]1(CCN(C)CCCc2nc3ccccc3[nH]2)CCc2cc(F)ccc2[C@@H]1C(C)C"
measured_metric = "pIC50"
endpoint_result = 6.83

[[record]]
compound = "CO[C@@H]1C[C@@](CCN(C)CCCc2nc3ccccc3[nH]2)(OC(=O)C(C)C)[C@@H](C(C)C)c2ccc(F)cc21"
measured_metric = "pIC50"
endpoint_result = 6.25

[[record]]
compound = "CC(C)C(=O)O[C@]1(CCN(C)CCCc2nc3ccccc3[nH]2)C[C@H](OCc2ccccc2)c2cc(F)ccc2[C@@H]1C(C)C"
measured_metric = "pIC50"
endpoint_result = 6.95

[[record]]
compound = "CCCC[C@@H]1C[C@@](CCN(C)CCCc2nc3ccccc3[nH]2)(OC(=O)COC)[C@@H](C(C)C)c2ccc(F)cc21"
measured_metric = "pIC50"
endpoint_result = 6.71

[[record]]
compound = "COCC(=O)O[C@]1(CCN(C)CCCc2nc3ccccc3[nH]2)CC(C)(C)c2cc(F)ccc2[C@@H]1C(C)C"
measured_metric = "pIC50"
endpoint_result = 6.68

